From: paper PMC6028563

Quick reference: inhibition at 0.1 µM of the listed items.
- study.target: human A2B AR (Homo sapiens, UniProt P29275)
- Construct: expressed in transfected cells; host or cells: CHO cells
- Sequence (P29275 1-332): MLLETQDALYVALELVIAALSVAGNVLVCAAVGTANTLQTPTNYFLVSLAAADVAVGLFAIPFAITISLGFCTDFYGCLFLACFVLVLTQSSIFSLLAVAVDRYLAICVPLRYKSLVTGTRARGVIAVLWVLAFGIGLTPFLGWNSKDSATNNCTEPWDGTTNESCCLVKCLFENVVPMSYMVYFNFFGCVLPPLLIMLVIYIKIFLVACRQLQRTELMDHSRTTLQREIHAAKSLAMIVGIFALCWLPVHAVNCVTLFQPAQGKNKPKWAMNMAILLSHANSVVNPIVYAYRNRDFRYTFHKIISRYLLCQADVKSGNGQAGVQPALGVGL
- measurement.notes: Radioligand binding assay at human A2B AR vs. [^3H]PSB-603
- setup.conditions: at 100 nM, read-out: % inhibition of radioligand binding at indicated concentration, A2B vs. [^3H]PSB-603

{"compound": "Cn1c(=O)c2c(nc3n2CCN(Cc2ccc(Cl)c(Cl)c2)C3)n(C2CC2)c1=O [Compound 17]", "inhibition at 0.1 µM": "2%"}
{"compound": "CCn1c(=O)c2c(nc3n2CCN(Cc2cccc(F)c2)C3)n(C)c1=O [Compound 14g]", "inhibition at 0.1 µM": "15%"}
{"compound": "CCn1c(=O)c2c(nc3n2CCN(Cc2cccc(C(F)(F)F)c2)C3)n(C)c1=O [Compound 14e]", "inhibition at 0.1 µM": "2%"}
{"compound": "CCn1c(=O)c2c(nc3n2CCN(Cc2ccc(C(F)(F)F)cc2)C3)n(C)c1=O [Compound 14f]", "inhibition at 0.1 µM": "1%"}

====

log10 of solubility values for the compounds below.
- measurement.notes: Thermodynamic solubility measurements
- Format: physicochemical
- setup.conditions: simulated gastric fluid, thermodynamic from solid; pH 1; thermodynamic solubility; read-out: Solubility, pH 1
quantity.name: log10 of solubility (log10 of the value in µg/mL)

{"compound": "CCn1c(=O)c2c(nc3n2CCN(Cc2cccc(C(F)(F)F)c2)C3)n(C)c1=O [Compound 14e]", "quantity.name": "log10 of solubility", "val": 2.60}
{"compound": "CCn1c(=O)c2c(nc3n2CCN(Cc2ccc(Br)cc2)C3)n(C)c1=O [Compound 14c]", "quantity.name": "log10 of solubility", "val": 3.11}
{"compound": "CCn1c(=O)c2c(nc3n2CCN(Cc2ccccc2Br)C3)n(C)c1=O [Compound 14a]", "quantity.name": "log10 of solubility", "val": 2.30}
{"compound": "CCn1c(=O)c2c(nc3n2CCN(Cc2cccc(C(F)(F)F)c2)C3)n(CC)c1=O [Compound 15g]", "quantity.name": "log10 of solubility", "val": 2.78}
{"compound": "CCn1c(=O)c2c(nc3n2CCN(Cc2cccc(Br)c2)C3)n(C)c1=O [Compound 14b]", "quantity.name": "log10 of solubility", "val": 2.00}
{"compound": "CCn1c(=O)c2c(nc3n2CCN(Cc2ccccc2C(F)(F)F)C3)n(CC)c1=O [Compound 15f]", "quantity.name": "log10 of solubility", "val": 2.48}
{"compound": "CCn1c(=O)c2c(nc3n2CCN(Cc2ccccc2C(F)(F)F)C3)n(C)c1=O [Compound 14d]", "quantity.name": "log10 of solubility", "val": 2.30}
